Experiment: viability profiling in RPMI8226 myeloma cells – cell-based, resazurin fluorescence, basal, 24 h, PK04 Diversity Set, profiling panel (AID 1180);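 further: RPMI8826 multiple myeloma cell line at 5000 cells per well; test concentration not given here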
Conditions: higher = more signal
Measurement Kind: z-score
Provide a numeric answer; units are not to be included.

CC(C)(C)OC(=O)CC[C@@]1(C(=O)N2CCOCC2)N=C(c2ccc(OCCCO)cc2)O[C@@H]1c1ccccc1N=[N+]=[N-]    0.066
O=C1O[C@@H](c2ccccc2)[C@@H](c2ccccc2)N2[C@@H](c3ccc(O)cc3)[C@]3(C(=O)Nc4ccccc43)[C@@H](C(=O)N3CCCCCCC3)[C@H]12    -1.01
CN(C)CCCCNC(=O)[C@@H]1C[C@@H]2C(=O)N[C@@H](CCCCN)C(=O)N2[C@@H]1c1cccc(OCCO)c1    -0.165

Noted for CN1C(=O)C2C=CC(C(O)C(c3ccccc3)c3ccccc3)N(Nc3ccccc3)C2C1=O (centres undefined) : its z-score reads -1.2

---

Item-by-item account of composite z-score
Test: COS7 lysate on small-molecule microarray, probe aHis, 635 nm (AID 1123);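 further: z-score combines 667nm fluorescence intensity with signal-to-noise per printed compound spot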
Details: COS7 cell lysate, fluorescence, higher = more signal
Answer with a number only.

Here are 5 compounds together with their reported answers.
O=C1O[C@@H](c2ccccc2)[C@@H](c2ccccc2)N2[C@@H](c3ccc(O)cc3)[C@]3(C(=O)Nc4ccccc43)[C@@H](C(=O)NC[C@H](O)c3ccccc3)[C@H]12    1.66
CCN(CC)c1ccc(N2CC=CC34O[C@@H]5C=CCOC(=O)[C@@H]5[C@H]3C(=O)N(CCCCCO)[C@@H]4C2=O)cc1 (some centres not stated)    1.17
CCCC[C@H]1C[C@@H]1[C@@H]1N(P(=O)(c2ccccc2)c2ccccc2)[C@](CO)(c2ccccc2)CC12CC2    2.17
C=C(/C(=C/C[C@@H](OC(C)=O)c1ccc(CO)o1)c1cnc2ccccc2c1)C(C)C    1.5
O=C1O[C@H](c2ccccc2)[C@H](c2ccccc2)N2[C@H]1[C@@H](C(=O)NC[C@H](O)c1ccccc1)[C@]1(C(=O)Nc3ccc(C#CC4=CCCCC4)cc31)[C@H]2c1ccc(O)cc1    1.98

For record `O=[N+]([O-])c1ccc(C[n+]2ccc(CCCO)cc2)o1` the listed composite z-score is 1.82

Sample O=C1C2C=CC(C(O)CCc3ccccc3)N(Nc3ccccc3)C2C(=O)N1c1ccccc1 (configuration not stated) ; composite z-score observed: 2.82

---

Assay: probe aWnt5a binding to arrayed compounds – biochemical, biotinylated probe, 635/667 nm fluorescence, primary screen (AID 1113);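 further: score merges 667 nm fluorescence intensity with signal-to-noise per printed feature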
Details: small-molecule microarray, higher = more signal
Measurement Kind: composite z-score
Could you keep your reply to the number by itself?

Guide cases for composite z-score, answers given:
Cc1ccc(F)cc1S(=O)(=O)N[C@@H]1CCN(Cc2ccc(C(F)(F)F)cc2)C1    -0.152
CC(=O)N1Cc2ccccc2C[C@@]2(N=C(c3ccc(OCCCO)cc3)O[C@H]2c2ccccc2)C1=O    -0.0051
O=c1cccc(-c2ccc3ccccc3c2)o1    -0.184
CO[C@H]1O[C@H](CO)[C@@H](OC(=O)Nc2cccc(F)c2)[C@H](OC(=O)Nc2ccccc2-c2ccccc2)[C@@H]1OC(=O)Nc1ccccc1-c1ccccc1    0.0825
C=CC[C@@]1(C(N)=O)N=C(c2ccc(OCCCO)cc2)O[C@@H]1c1ccccc1N=[N+]=[N-]    0.0825

Looking up `COc1c(C)cc(-c2cc3c(c(-c4ccccc4)n2)[Si](C(C)C)(C(C)C)O[C@H]3c2ccccc2)cc1C` , I see its composite z-score listed as -0.006

Note to self: composite z-score recorded for `CCOC(=O)C[C@H]1[C@H](OC(=O)c2cc3ccccc3oc2=O)[C@@H](NC(=O)c2ccc3ccccc3c2)c2cc(OCCCO)ccc2N1C(=O)c1ccccc1` was -0.12

For reference, reported composite z-score for CCN(CC)c1ccc(N2CC=CC34O[C@@H]5/C=C\CCC(C)OC(=O)C5[C@H]3C(=O)N(CCCCCCO)[C@@H]4C2=O)cc1 (stereo partly specified) stands at -0.13

// composite z-score lookup, molecule = CC1CC/C=C\[C@H]2OC34C=CCN(CCN5CCOCC5)C(=O)[C@H]3N(CCCCCO)C(=O)[C@@H]4C2C(=O)O1 (stereo partly specified) , result: -0.224

The molecule identified as `COc1cc(CO)cc(I)c1O[C@H]1C=C(C(=O)NCCO)C[C@@H](N(CCc2cccc(F)c2)C(=O)CCC2CCCC2)[C@@H]1O` registered its composite z-score at 0.277

Measured composite z-score, `C=C(CCCC)/C(=C/C[C@H](OC(C)=O)c1ccc(CO)o1)c1cc(C(=O)OC)ccc1OC` : -0.101

Given item `COC(=O)[C@@]1(Cc2ccc(F)cc2)[C@H]2c3cc(C(=O)N(C)C)n(CCCNc4ccc(C(F)(F)F)cc4Cl)c3C[C@H]2CN1C(=O)c1ccccc1` , the value recorded as its composite z-score is 0.284

Reported composite z-score of `COc1ccc([Si](C)(C)[C@@H]2[C@@H](CCO)O[C@]3(C(=O)N(Cc4cccc(N(C=O)c5ccccc5)c4)c4ccccc43)[C@H]2C)cc1` : -0.176

// sample `CC(C)NC(=O)[C@@H]1c2ccccc2C(=O)N(C2CCCCC2)[C@H]1c1ccc(CO)cc1` , its composite z-score was 0.0279

The measured composite z-score associated with `C=C[C@H](C)[C@H](O)c1ccc(OCCO)cc1` reads -0.139

GET /value?item= O=C1OCCC/C=C\[C@H]2OC34C=CCN(CCN5CCOCC5)C(=O)[C@H]3N(CCO)C(=O)[C@@H]4C12 (stereo partly specified) &field=composite z-score returns -0.176

The reported numbers originate from PubChem BioAssay.
